The origin of these recorded values is PubChem BioAssay (EPA / NIEHS).

- Read-out: catalase (CAT), CAT (gene 847)
- Assay name: LTEA_HepaRG_CAT: Life Technologies and Expression Analysis (LTEA) Assay for catalase (CAT) using HepaRG (AID 2283452)
- Stated conditions: mRNA level, 48 h; actives raise or lower the signal
Active and inactive are the calls of the source. The calls were made as follows: active = hit-call score of the fitted dose curve at least 0.9, where 1 is the maximum; inactive = score below 0.9.
Classes used: yes for active, no for inactive

| Compound | Class assignment |
| --- | --- |
| CC(=O)OCC(COC(C)=O)OC(C)=O | no |
| CC1(C)C(=O)NC(=O)N1CO | no |
| CCCCCCCCCC[N+](C)(C)[O-] | no |
| CC(C)c1cccc(C(C)C)c1 | no |
| CCc1nc(N)nc(N)c1-c1ccc(Cl)cc1 | yes |
| O=Cc1ccccc1C=O | no |
| O=NO | no |
| Cc1ccc(-c2cc(C(F)(F)F)nn2-c2ccc(S(N)(=O)=O)cc2)cc1 | yes |
| C/C=C/c1ccc(OC)cc1 | no |
| O=C1NC(=O)C(c2ccccc2)(c2ccccc2)N1 | no |
| Cc1c(C)c2c(c(C)c1O)CCC(C)(COc1ccc(CC3SC(=O)NC3=O)cc1)O2 (centres undefined) | yes |
| CCCCCCCCCCCCCCOS(=O)(=O)O | no |
| C/C=C/C=C/C(=O)O | no |
| CC(C)(C)c1ccccc1 | no |
